This collection of values is drawn from patent US20030236190A1.

- subject-of-test: T1, Insulin receptor (IR) prepared according to Bass et al., 1996 (human, UniProt P06213 28-956)
- T1 construct: extracellular domain; also called soluble IR (Bass construct); sIR-Fc; not shown: immunoglobulin heavy chain constant domains of the Bass chimera
Positions of bridges follow the written chain, without caps; N, C: chain ends. No end group written: not given here.
assay-readout: ratio over background, IR (ratio over background)
Write the value in ratio over background as a bare number.

- AGSVTSFYDAMEQLVATGTSA [20E2A-3-A4-IGFR]: 1.8
- GCITAENGAGDPFYHKLSELGGCS (disulfide 2-23 (inferred); not fully specified (N-terminus, C-terminus)) [B6Hα-1-23-IR]: 1.1
- SSETAKMVTGTRDDPFYHKLSELVQGS [B6Hα-2-D8-IR]: 1
- RCGDEEGWQENRRDDPFYHKLSELFGGC (disulfide 2-28 (inferred); not fully specified (N-terminus, C-terminus)) [B6Hα-3-ES-IR]: 1

// query For CSMAAVAEAGDDDDPFYHKLSELCQGS [B6Hα-3-F1-IR] , write its ratio over background, IR.
// result 1.3

// query For CGAKMTGTPNDPFYHKLSELLQRG [B6Hα-3-E6-IR] , write its ratio over background, IR.
// result 1.2
